Could you please report measured inhibition for the items listed next?
test system: Epidermal growth factor receptor (Homo sapiens), P00533 [T790M]; details: at 1 µM
Sequence (P00533 whole entry T790M): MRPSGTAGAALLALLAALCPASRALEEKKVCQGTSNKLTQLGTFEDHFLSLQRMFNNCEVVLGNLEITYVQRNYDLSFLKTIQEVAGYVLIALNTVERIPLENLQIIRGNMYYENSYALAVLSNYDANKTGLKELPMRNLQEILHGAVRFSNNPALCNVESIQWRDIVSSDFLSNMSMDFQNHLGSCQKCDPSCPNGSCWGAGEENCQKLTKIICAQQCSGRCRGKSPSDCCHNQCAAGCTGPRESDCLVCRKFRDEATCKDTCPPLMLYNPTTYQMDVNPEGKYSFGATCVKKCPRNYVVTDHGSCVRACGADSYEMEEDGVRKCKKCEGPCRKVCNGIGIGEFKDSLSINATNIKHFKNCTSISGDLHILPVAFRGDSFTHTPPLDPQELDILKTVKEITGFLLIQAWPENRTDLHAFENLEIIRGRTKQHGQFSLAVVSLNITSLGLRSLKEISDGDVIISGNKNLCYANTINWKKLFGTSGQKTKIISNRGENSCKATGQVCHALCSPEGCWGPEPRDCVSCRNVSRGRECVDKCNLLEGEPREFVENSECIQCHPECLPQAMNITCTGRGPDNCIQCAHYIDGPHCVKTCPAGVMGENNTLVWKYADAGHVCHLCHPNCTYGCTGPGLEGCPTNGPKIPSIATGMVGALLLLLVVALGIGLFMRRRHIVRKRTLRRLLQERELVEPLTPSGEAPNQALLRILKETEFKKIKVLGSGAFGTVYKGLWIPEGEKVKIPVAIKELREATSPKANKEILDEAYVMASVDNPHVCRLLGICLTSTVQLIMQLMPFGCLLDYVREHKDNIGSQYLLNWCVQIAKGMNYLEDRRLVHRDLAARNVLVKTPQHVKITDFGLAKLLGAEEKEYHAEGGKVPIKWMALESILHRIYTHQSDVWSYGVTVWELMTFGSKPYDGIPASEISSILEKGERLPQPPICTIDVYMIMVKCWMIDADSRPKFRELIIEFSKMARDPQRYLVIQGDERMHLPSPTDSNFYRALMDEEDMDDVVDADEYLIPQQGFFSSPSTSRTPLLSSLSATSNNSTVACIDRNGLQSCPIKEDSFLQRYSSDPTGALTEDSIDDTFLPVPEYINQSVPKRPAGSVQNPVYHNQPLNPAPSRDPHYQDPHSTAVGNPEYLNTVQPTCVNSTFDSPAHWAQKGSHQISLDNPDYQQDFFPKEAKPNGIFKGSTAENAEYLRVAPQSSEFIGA
Give bare numbers, in %.

FC(F)(F)c1cccc(Nc2nccc(-c3cnn4nc(-c5ccccc5)ccc34)n2)c1 :: -0.22

Report inhibition for each item below.
1. c1ccc(-c2n[nH]cc2-c2ccnc(-c3ccc(OCCN4CCOCC4)cc3)c2)nc1
2. O=C(NCC1CC1)c1ccc(-c2cccc(C(=O)NC3CC3)c2)cc1
3. COc1cc2ncn(-c3cc(OCc4ccccc4C(F)(F)F)c(C(C)=O)s3)c2cc1OC
4. Fc1ccc(-c2c(-c3ccncc3)nc3n2CCS3)cc1
5. CN(C)CCCNc1nccc(-c2c(-c3ccc(F)cc3)nn3cc(C(F)(F)F)ccc23)n1
6. COc1cc(C)c(N(C)C(=O)CN(C)C)cc1Nc1nc(Nc2cccc(F)c2C(N)=O)c2cc[nH]c2n1

1: -0.63; 2: -1.31; 3: 0.97; 4: 1.49; 5: -0.54; 6: 1.09

Please supply inhibition for each of the following items, keeping them in order.
1. CCN(CC)Cc1ccc(Nc2nccc(-c3cnn4ncccc34)n2)cc1
2. Nc1nccc(-c2c(-c3ccc(F)cc3)ncn2C2CCC(O)CC2)n1 (configuration not stated)
3. CN(C)c1ccc2c(c1)/C(=C/Nc1ccc(S(N)(=O)=O)cc1)C(=O)N2
4. Cc1ccc(C(=O)NC(C)C)cc1-c1ccc(C(=O)NCC2CC2)cc1
5. CCS(=O)(=O)c1ccc(OC)c(Nc2ncc(-c3ccccc3Cl)o2)c1

1.33
0.86
0.66
-3.61
3.29
